# experimentalTarget: HLA-A*26:01
# assayDetails: IEDB peptide-MHC binding, purified MHC/competitive/fluorescence; filed as Kd, often an IC50 or EC50 that approximates it; bounds were set here for any values at or beyond the usual limits of such assays
# measurementSetup: source organism: Vibrio cholerae 2740-80
valueType: Kd

sequenceEntry	assayValue
YEPEMQAQV	≥ 20 µM

* * *

Each item that follows carries a reported pKd.
# experimentalTarget: HLA-B*07:02
# assayDetails: IEDB peptide-MHC binding, purified MHC/competitive/radioactivity; filed as Kd, often an IC50 or EC50 that approximates it; bounds were set here for any values at or beyond the usual limits of such assays
# measurementSetup: source organism: Dengue virus 1 Singapore/S275/1990
pKd: −log10 of the molar value.

sequenceEntry	pKd
IPKIYGGPI	7.85
TPNLAERVL	6.94

Cited source for all entries: the Immune Epitope Database (IEDB)
